Readings of inhibition of aggregation for the listed compounds
test: reduction of polyQ htt aggregates in cells – imaging, exon1htt(103Q)mCFP cells, high-content imaging, primary screen (AID 483); conditions: exon1htt(103Q)mCFP cell line, aggregate imaging, at 2 µM; active compounds read high;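 further: compound exposure lasted 3 days before fixation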
Write down the numeric answer in % and omit the unit.

These solved cases illustrate the format of a correct answer.
Cc1nn(S(=O)(=O)N2CCCCC2)c(C)c1Br: 10.9
COc1ccc(N2CCN(C(=O)C(C)(C)Oc3ccc(Cl)cc3)CC2)cc1: 4.4

In: For the compound Cc1ccc(N2CCN(CCc3nc4cc(NS(C)(=O)=O)ccc4n3C)CC2)cc1 , what inhibition of aggregation is on record?
Out: 2

In: For the compound COc1ccc(NC(=O)CSc2nnc(-c3ccccc3)n2N)cc1 , what inhibition of aggregation is on record?
Out: 4.9

In: For the compound Cc1cc2c(cc1C)-c1nnnn1C(C)(C)C2 , what inhibition of aggregation is on record?
Out: 13.2

In: For the compound COc1ccc2c(c1)C(C)=CC(C)(C)N2C(=O)C(C)N1C(=O)c2ccccc2C1=O (stereo unspecified) , what inhibition of aggregation is on record?
Out: 7.1
